- system: PI3Kα (His-PIK3CA/PIK3R1, p110 alpha/p85 alpha) (Homo sapiens (Human))
- Sequence (P42336 whole entry, species assumed): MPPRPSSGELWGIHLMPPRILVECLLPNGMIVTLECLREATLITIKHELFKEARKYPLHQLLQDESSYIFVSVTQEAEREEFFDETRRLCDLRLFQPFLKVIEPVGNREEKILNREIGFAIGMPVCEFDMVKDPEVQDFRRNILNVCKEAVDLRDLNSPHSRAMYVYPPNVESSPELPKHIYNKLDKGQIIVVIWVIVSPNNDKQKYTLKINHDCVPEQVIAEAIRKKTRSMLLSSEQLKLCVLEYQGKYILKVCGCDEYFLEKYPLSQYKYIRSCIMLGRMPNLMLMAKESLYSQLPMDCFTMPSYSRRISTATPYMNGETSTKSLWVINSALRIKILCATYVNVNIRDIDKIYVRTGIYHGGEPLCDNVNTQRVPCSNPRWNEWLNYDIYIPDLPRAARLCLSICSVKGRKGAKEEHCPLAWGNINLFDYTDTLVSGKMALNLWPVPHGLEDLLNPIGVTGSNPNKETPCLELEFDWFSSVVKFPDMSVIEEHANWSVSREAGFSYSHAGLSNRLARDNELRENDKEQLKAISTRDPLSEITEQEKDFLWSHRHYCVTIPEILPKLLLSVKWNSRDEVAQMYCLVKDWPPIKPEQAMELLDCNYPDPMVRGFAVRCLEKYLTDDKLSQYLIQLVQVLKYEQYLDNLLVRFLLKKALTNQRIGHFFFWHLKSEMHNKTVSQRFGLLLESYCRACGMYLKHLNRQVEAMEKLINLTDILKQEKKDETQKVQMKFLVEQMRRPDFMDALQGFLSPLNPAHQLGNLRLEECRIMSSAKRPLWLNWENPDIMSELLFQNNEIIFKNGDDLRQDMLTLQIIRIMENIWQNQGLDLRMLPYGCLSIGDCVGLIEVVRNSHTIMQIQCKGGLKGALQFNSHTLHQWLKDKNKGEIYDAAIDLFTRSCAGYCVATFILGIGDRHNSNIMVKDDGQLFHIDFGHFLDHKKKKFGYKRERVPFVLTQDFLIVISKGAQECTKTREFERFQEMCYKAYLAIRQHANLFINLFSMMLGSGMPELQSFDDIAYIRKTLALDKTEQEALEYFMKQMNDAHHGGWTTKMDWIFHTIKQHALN
- Sequence (P27986 whole entry partner, species assumed): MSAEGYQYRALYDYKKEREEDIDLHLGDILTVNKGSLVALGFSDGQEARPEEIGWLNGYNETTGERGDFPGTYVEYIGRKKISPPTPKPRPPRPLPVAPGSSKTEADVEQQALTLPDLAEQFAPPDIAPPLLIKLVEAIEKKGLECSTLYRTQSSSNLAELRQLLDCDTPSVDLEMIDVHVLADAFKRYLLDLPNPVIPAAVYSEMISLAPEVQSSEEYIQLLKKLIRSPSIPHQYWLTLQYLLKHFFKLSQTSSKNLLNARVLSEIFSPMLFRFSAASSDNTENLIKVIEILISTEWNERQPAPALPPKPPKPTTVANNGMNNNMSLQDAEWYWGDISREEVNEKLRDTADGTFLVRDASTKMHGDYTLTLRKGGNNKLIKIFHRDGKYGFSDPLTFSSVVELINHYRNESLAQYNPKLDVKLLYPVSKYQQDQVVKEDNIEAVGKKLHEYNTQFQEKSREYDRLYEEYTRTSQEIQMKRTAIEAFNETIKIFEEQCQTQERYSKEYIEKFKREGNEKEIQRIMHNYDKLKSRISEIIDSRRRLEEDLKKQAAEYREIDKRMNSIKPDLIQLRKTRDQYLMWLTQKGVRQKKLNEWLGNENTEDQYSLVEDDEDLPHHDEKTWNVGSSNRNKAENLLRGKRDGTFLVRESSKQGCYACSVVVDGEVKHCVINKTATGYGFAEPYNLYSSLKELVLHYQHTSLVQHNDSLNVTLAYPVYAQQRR
- assay_procedure: PI3Kα biochemical assay (HTRF/FRET probe)
- Format: binding
- settings: class symbol
pIC50: −log10 of the molar value.
value_kind: pIC50

INSERT INTO results (compound, result) VALUES
  ('COCC12CC(n3c(=O)n(C)c4cnc(Nc5cc6c(cc5C)OCO6)nc43)(C1)C2 [Compound 21]', '≤ 6.00'),
  ('Cc1cc2nnccc2cc1Nc1ncc2c(n1)N(C13CCC(O)(CC1)C3)CC(=O)N2C [Compound 61]', '7.00 to 8.00'),
  ('COC12CCC(n3c(=O)n(C)c4cnc(Nc5cn6ncnc6cc5C)nc43)(CC1)CC2 [Compound 25]', '6.00 to 7.00'),
  ('COC12CCC(n3c(=O)n(C)c4cnc(Nc5cc6c(cc5C)OCO6)nc43)(CC1)CC2 [Compound 26]', '6.00 to 7.00');
